Collected remaining at 4 h, 20 μM values appear next to each entry.
procedure.text: Serum stability test, monkey serum
Assay type: in vitro ADME, cynomolgus monkey
condition.notes: male, residual ratio: IS ratio at 4 hours relative to 0 hours, 37° C.
Starred links: 1 amine or outer side, 2 acyl side, 3 side chain; linkers in the order of their positions; H or OH if unused. Positions of bridges follow the written chain, without caps; N, C: chain ends. Non-standard residues stand in square brackets, D forms with d. Residues, ends and D or L forms follow the SMILES beside them. 2Nal = N[C@@H](Cc1ccc2ccccc2c1)C(=O)O; Gly(cPent) = N[C@H](C(=O)O)C1CCCC1; hCys = N[C@@H](CCS)C(=O)O; CH2 = C([*:1])[*:2]
Answer format: numeric, % implied, no suffix.

molecule | remaining at 4 h, 20 μM, %
N=C(N)NCCC[C@@H]1NC(=O)CNC(=O)[C@@H]2CSSCC[C@H](NC(=O)[C@H](Cc3c[nH]c4ccccc34)NC(=O)[C@H](CC(=O)O)NC1=O)C(=O)N[C@@H](CCCNC(=N)N)C(=O)N[C@@H](Cc1c[nH]c3ccccc13)C(=O)N[C@@H](C1CCCC1)C(=O)N[C@H](C(N)=O)CSCC(=O)N[C@@H](Cc1ccc3ccccc3c1)C(=O)N[C@@H](CCCNC(=N)N)C(=O)N2 [Peptide-126] ({CH2CO}-[2Nal]RCGRDW[hCys]RW[Gly(cPent)]C-NH2; disulfide 3-8; thioether N-12) | 100

Now examine the next entry.
Lookup: Which remaining at 4 h, 20 μM reading was recorded for the molecule N=C(N)NCCC[C@@H]1NC(=O)CNC(=O)[C@@H]2CSCSC[C@H](NC(=O)[C@H](Cc3c[nH]c4ccccc34)NC(=O)[C@H](CC(=O)O)NC1=O)C(=O)N[C@@H](CCCNC(=N)N)C(=O)N[C@@H](Cc1c[nH]c3ccccc13)C(=O)N[C@@H](C1CCCC1)C(=O)N[C@H](C(N)=O)CSCC(=O)N[C@@H](Cc1ccc3ccccc3c1)C(=O)N[C@@H](CCCNC(=N)N)C(=O)N2 [Peptide-130] ({CH2CO}-[2Nal]RCGRDWCRW[Gly(cPent)]C-NH2; linker 3-8 via CH2; thioether N-12) ?
Found: 93.5
